target_under_test: human recombinant USP30 (Homo sapiens, UniProt Q70CQ3)
experimental_protocol: Ubiquitin-Rhodamine 110 Assay for USP30 Activity (USP30 Inhibitor Biochemical Assay)
details: 0.2 nM USP30, 25 nM Ub-Rh110, 30 min preincubation, 30 min at room temperature; read-out: USP30 potency range (USP30 biochemical IC50 assay, IC50 ranges)
pIC50: −log10 of the molar value.
experimental_endpoint: pIC50

For every item below, please supply its pIC50.
1. Cn1cc(-c2ccc(-c3cc(C(=O)N4CCC[C@]45C[C@H](NC#N)C5)on3)cc2)cn1
2. N#CN[C@H]1C[C@@]2(CCN(c3nc(Cl)c(C4CCCCC4)s3)C2=O)C1
3. CC(C)c1ccc(CNC(=O)[C@H]2C[C@H](NC#N)C2)cc1
4. N#CN[C@H]1C[C@](F)(C(=O)Nc2nc3cccc(OC4CCC4)c3s2)C1
5. Cc1nc(C2CCCCC2)sc1NC(=O)[C@H]1C[C@H](NC#N)C1
6. N#CNC1CN(C(=O)Nc2ncc(C3CCCCC3)s2)C1
7. N#CN[C@H]1C[C@H](C(=O)Nc2ncc(-c3ccccc3)s2)C1

Result:
1. 6.00 to 7.00
2. 6.00 to 7.00
3. > 7.00
4. 6.00 to 7.00
5. 6.00 to 7.00
6. 5.00 to 6.00
7. 5.00 to 6.00

For every item below, please supply its pIC50.
1. N#CN[C@H]1CCC[C@@H]1C(=O)Nc1ncc(C2CCCCC2)s1
2. CN(c1nc(Cl)c(C2CCCCC2)s1)C(=O)[C@]1(F)C[C@H](NC#N)C1
3. CC(C)(C)c1sc(NC(=O)[C@]2(F)C[C@H](NC#N)C2)nc1Cl

Result:
["5.00 to 6.00", "> 7.00", "> 7.00"]

----------
Assignment: determine reported IC50 for the given compounds.
target_under_test: human recombinant USP30 (Homo sapiens)
Sequence (Q70CQ3 1-517): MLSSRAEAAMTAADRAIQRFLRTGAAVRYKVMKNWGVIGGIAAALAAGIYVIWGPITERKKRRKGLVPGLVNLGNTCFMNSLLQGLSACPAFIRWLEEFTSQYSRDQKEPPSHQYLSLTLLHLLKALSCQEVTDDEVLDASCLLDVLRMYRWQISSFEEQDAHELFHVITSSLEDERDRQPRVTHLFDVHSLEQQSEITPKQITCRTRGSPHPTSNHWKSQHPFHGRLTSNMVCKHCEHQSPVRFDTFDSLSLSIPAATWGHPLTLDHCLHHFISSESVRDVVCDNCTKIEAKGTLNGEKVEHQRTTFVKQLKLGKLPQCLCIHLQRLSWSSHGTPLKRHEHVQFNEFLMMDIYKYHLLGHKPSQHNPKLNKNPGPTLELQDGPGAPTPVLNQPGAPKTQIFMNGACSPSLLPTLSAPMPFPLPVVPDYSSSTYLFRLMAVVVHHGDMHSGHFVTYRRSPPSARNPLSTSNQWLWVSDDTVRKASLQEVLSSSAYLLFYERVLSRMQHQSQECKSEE
experimental_protocol: Ubiquitin-Rhodamine 110 Assay for USP30 Activity (USP30 Inhibitor Biochemical Assay)
details: 0.2 nM USP30, 25 nM Ub-Rh110, 30 min preincubation, 30 min at room temperature; read-out: USP30 potency range (USP30 biochemical IC50 assay, IC50 ranges)

{"compound": "N#CN[C@H]1C[C@@H](C(=O)Nc2nc(Cl)c(C3CCCCC3)s2)C1", "IC50": "0.1 to 1 µM"}
{"compound": "N#CNC1CCN(C(=O)c2csc(-c3ccc(Cl)cc3Cl)n2)CC1", "IC50": "1 to 10 µM"}
{"compound": "N#CN[C@H]1CC[C@H](C(=O)Nc2ncc(-c3ccccc3)s2)C1", "IC50": "1 to 10 µM"}
{"compound": "N#CN[C@H]1CC[C@H](C(=O)Nc2ccc3c(c2)CCC3)C1", "IC50": "10 to 25 µM"}
{"compound": "CN(c1nc(Cl)c(C(C)(C)C)s1)C(=O)[C@H]1C[C@H](NC#N)C1", "IC50": "< 0.1 µM"}

For every item below, please supply its IC50.
1. N#CN[C@H]1C[C@H](C(=O)Nc2ncc([C@@H]3CC4CCC3CC4)s2)C1
2. N#CN[C@H]1C[C@@](F)(C(=O)Nc2nc3cccc(OC4CCC4)c3s2)C1
3. CN(c1cc(-c2cccc(Cl)c2)no1)C(=O)[C@H]1C[C@H](NC#N)C1
4. CC1(C)CCCC[C@H]1c1ncc(NC(=O)[C@H]2C[C@H](NC#N)C2)s1 (single isomer, unassigned)

Result:
["< 0.1 µM", "< 0.1 µM", "0.1 to 1 µM", "0.1 to 1 µM"]
